- Test system: Saos, an osteosarcoma cell line
- Assay explanation: SRB assay, 48 h, cytostasis, Saos
- Assay type: cell-based
- Run parameters: SRB assay
Property: IC50 (µM)

[
  {
    "Molecule": "Cc1ccc(C(C)C)cc1.F[P-](F)(F)(F)(F)F.O=C(OCC1OC(n2cc(-c3ccccn3)nn2)C(OC(=O)c2ccccc2)C(OC(=O)c2ccccc2)C1OC(=O)c1ccccc1)c1ccccc1.[Cl][Os+] (mixture of isomers)",
    "Recorded value": 3.6
  },
  {
    "Molecule": "Cc1c(C)c(C)[c-](C)c1C.F[P-](F)(F)(F)(F)F.O=C(OCC1OC(n2cc(-c3ccccn3)nn2)C(OC(=O)c2ccccc2)C(OC(=O)c2ccccc2)C1OC(=O)c1ccccc1)c1ccccc1.[Cl][Ir+2] (mixture of isomers)",
    "Recorded value": 2.71
  },
  {
    "Molecule": "Cc1ccc(C(C)C)cc1.F[P-](F)(F)(F)(F)F.O=C(OC1COC(c2nnc(-c3ccccn3)o2)C(OC(=O)c2ccccc2)C1OC(=O)c1ccccc1)c1ccccc1.[Cl][Os+] (mixture of isomers)",
    "Recorded value": 8.52
  },
  {
    "Molecule": "Cc1ccc(C(C)C)cc1.F[P-](F)(F)(F)(F)F.O=C(OCC1OC(c2nnc(-c3ccccn3)o2)C(OC(=O)c2ccccc2)C(OC(=O)c2ccccc2)C1OC(=O)c1ccccc1)c1ccccc1.[Cl][Os+] (mixture of isomers)",
    "Recorded value": 8.78
  }
]

====

- Assay explanation: Determination of the distribution coefficients (logD), n-octanol/PBS
- Type: physicochemical
- Run parameters: n-octanol / PBS pH = 7.40, rt
- Protocol: Before starting the experiments, n-octanol was saturated with an aqueous PBS solution (pH = 7.40) and vice versa. […] The corresponding separated solution was centrifuged (ScanSpeed 406G instrument, 4000 RPM for 5 min) and the absorption of the ”stock solution” was determined (VWR UV-1600PC Spectrophotometer, 270–420 nm). […] After one day had passed, the phases were separated, centrifuged, and the absorption of the solution was measured again. […]
LogD for assorted compounds

[
  {
    "Compound": "Cc1ccc(C(C)C)cc1.F[P-](F)(F)(F)(F)F.O=C(OC1COC(c2nnc(-c3ccccn3)o2)C(OC(=O)c2ccccc2)C1OC(=O)c1ccccc1)c1ccccc1.[Cl][Os+] (mixture of isomers) [Os-5]",
    "LogD": 2.36
  },
  {
    "Compound": "Cc1ccc(C(C)C)cc1.F[P-](F)(F)(F)(F)F.O=C(OCC1OC(c2nnc(-c3ccccn3)o2)C(OC(=O)c2ccccc2)C(OC(=O)c2ccccc2)C1OC(=O)c1ccccc1)c1ccccc1.[Cl][Os+] (mixture of isomers) [Os-4]",
    "LogD": 2.87
  },
  {
    "Compound": "CC(=O)OCC1OC(c2nnc(-c3ccccn3)o2)C(OC(C)=O)C(OC(C)=O)C1OC(C)=O.Cc1c(C)c(C)[c-](C)c1C.F[P-](F)(F)(F)(F)F.[Cl][Ir+2] (mixture of isomers) [Ir-7]",
    "LogD": "−0.75"
  },
  {
    "Compound": "Cc1c(C)c(C)[c-](C)c1C.F[P-](F)(F)(F)(F)F.O=C(OCC1OC(c2nnc(-c3ccccn3)o2)C(OC(=O)c2ccccc2)C(OC(=O)c2ccccc2)C1OC(=O)c1ccccc1)c1ccccc1.[Cl][Ir+2] (mixture of isomers) [Ir-3]",
    "LogD": 1.46
  }
]
